Test name: Inhibition of Vibrio cholerae alpha-carbonic anhydrase preincubated for 15 mins by stopped-flow CO2 hydration assay
pKi: −log10 of the molar value.
Please note: true (1) applies when pKi is 4 or greater, and false (0) applies otherwise.

Example entries begin here.
CCN(CC)C(=S)S	true (1)
O=S(=O)(O)O	false (0)
[N-]=[N+]=[N-]	false (0)

Task item: Given the entry O=[As](O)(O)c1ccccc1 , answer whether its pKi meets or surpasses 4.
Reply: true (1)

Task item: Also NS(=O)(=O)O [SULFAMATE] , if possible.
Reply: true (1)

Task item: Also O=P(O)(O)OP(=O)(O)O , if possible.
Reply: false (0)

Task item: Also F [FLUORIDE ION] , if possible.
Reply: false (0)

Task item: Also [O-][Cl+3]([O-])([O-])O [PERCHLORATE] , if possible.
Reply: false (0)

Task item: Also O=NO , if possible.
Reply: false (0)

Task item: Also O=[Te](=O)(O)O , if possible.
Reply: false (0)

Task item: Also OB(O)c1ccccc1 , if possible.
Reply: true (1)

Task item: Also F[B-](F)(F)F , if possible.
Reply: false (0)

Task item: Also S [HYDROGEN SULFIDE] , if possible.
Reply: true (1)

Task item: Also O=S(O)O , if possible.
Reply: true (1)

Task item: Also NS(N)(=O)=O [SULFAMIDE] , if possible.
Reply: true (1)

Task item: Also N=C=S [ISOTHIOCYANATE] , if possible.
Reply: false (0)

Task item: Also Cl [HYDROCHLORIC ACID] , if possible.
Reply: false (0)

Task item: Also O=S(=O)(O)OOS(=O)(=O)O , if possible.
Reply: false (0)

Task item: Also O=S(=O)(O)NS(=O)(=O)O , if possible.
Reply: false (0)

Task item: Also N=C=[Se] [ISOSELENOCYANATE] , if possible.
Reply: false (0)

Task item: Also N#CO [CYANATE] , if possible.
Reply: true (1)
